Molecular target: T1, human 5T4-His protein (human, UniProt Q13641 32-355)
T1 construct: also called recombinant 5T4 protein (human 5T4-his tag); human 5T4 protein; not shown: His tag
T1 sequence (looked up): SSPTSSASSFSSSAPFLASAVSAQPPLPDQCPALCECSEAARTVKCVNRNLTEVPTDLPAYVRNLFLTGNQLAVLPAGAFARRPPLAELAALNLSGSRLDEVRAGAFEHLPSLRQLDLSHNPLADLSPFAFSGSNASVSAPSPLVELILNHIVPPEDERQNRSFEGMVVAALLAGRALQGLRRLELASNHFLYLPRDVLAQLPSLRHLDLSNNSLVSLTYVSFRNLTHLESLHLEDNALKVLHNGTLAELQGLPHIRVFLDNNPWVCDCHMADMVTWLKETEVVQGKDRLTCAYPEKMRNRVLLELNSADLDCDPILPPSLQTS
Experiment: SPR Biacore, Protein A capture
REPORTED_PROPERTY: koff (s⁻¹)
Report as a plain number; the unit s⁻¹ is understood.

Recorded koff (binder Hu14G12-16 (antibody, V domains shown, humanized) VH: EVQLVQSGAEVKKPGATVKISCKASGYAFSSSWMNWVKQAPGKGLEWIGRIYREDGHTNYNGKFKGRATITADTSTTTAYMELSSLRSEDSAVYFCANGGAMDYWGQGTLVTVSS VL: DIQMTQSPSSLSASVGDRVTISCRASQDISNYLNWYQQKPGKTVKLLIYYTSRLHSGVPSRFSGSGSGTDYTFTISSLQPEDIATYFCQQDNTLPWTFGGGTKLEIK ): 0.000499

Looking up Hu14G12-32 (antibody, V domains shown, humanized) VH: QVQLVQSGAEVKKPGASVKVSCKASGYAFSSSWMNWVRQAPGQGLEWMGRIYREDGHTNYNGKFKGRVTMTADKSITTAYMELSRLRSDDTAVYYCANGGAMDYWGQGTLVTVSS VL: DIQMTQSPSTLSASVGDRVTITCRASQDISNYLNWYQQKPGKAPKLLIYYTSRLHSGVPSRFSGSGSGTEYTLTISSLQPDDIATYFCQQDNTLPWTFGGGTKVEIK , I see its koff listed as 0.000979
